# assay-overview: Toxicity against BALB/c mouse xenografted with mouse 4T1 cells assessed as pathological changes in liver at 1 mg/kg, iv qd for 14 days by Hematoxylin-Eosin staining based analysis
# Type: organism-based
# test-parameters: in vivo, 336 h, time 14 day

smiles-string	Activity
CCCCc1nc2c(N)nc3ccccc3c2n1Cc1ccc(CNC(=O)OCCSSC[C@H](NC(=O)CC[C@H](NC(=O)CNC(=O)Cc2cc3c(=O)[nH]c(N)nc3[nH]2)C(=O)O)C(=O)O)cc1	Non-toxic
CCCCc1nc2c(N)nc3ccccc3c2n1Cc1ccc(CNC(=O)OCCSSC[C@H](NC(=O)CC[C@H](NC(=O)c2ccc(CCCCc3cc4c(=O)[nH]c(N)nc4[nH]3)cc2)C(=O)O)C(=O)O)cc1	Non-toxic
CCCCc1nc2c(N)nc3ccccc3c2n1Cc1ccc(CNC(=O)OCCSSC[C@H](NC(=O)CC[C@H](NC(=O)c2ccc(CCCCc3cc4c(=O)[nH]c(N)nc4[nH]3)s2)C(=O)O)C(=O)O)cc1	Non-toxic
CCCCc1nc2c(N)nc3ccccc3c2n1Cc1ccc(CNC(=O)OCCSSC[C@H](NC(=O)CC[C@H](NC(=O)c2ccc(NCc3cnc4nc(N)[nH]c(=O)c4n3)cc2)C(=O)O)C(=O)O)cc1	Non-toxic
